Recorded values, source patent US9249145B2.

Target: human JAK1 (a.a. 837-1142) (Homo sapiens)
Construct: The catalytic domains of human JAK1 (a.a. 837-1142); His tag (N); made in house; host or cells: insect cells (baculovirus)
Sequence (P23458 849-1154): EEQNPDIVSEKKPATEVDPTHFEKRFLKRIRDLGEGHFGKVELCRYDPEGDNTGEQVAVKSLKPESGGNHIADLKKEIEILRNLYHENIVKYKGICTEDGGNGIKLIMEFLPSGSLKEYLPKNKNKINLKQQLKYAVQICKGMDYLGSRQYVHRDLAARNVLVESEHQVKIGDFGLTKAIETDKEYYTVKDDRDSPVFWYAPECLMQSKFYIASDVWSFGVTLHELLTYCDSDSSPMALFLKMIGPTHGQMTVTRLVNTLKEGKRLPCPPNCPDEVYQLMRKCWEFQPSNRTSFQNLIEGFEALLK
Assay: In vitro JAK kinase assay (HTRF, phosphorylation of biotinylated peptide), JAK1
Type: biochemical
Conditions: 1 mM ATP; Examples 12-91; read-out: JAK1 IC50 (nM) @ 1 mM ATP
Counter-ions that a name gives are not always drawn.
QUANTITY_MEASURED: IC50

Task: Param item = N#CCC(CN1CCN(S(=O)(=O)c2cc(F)cc(F)c2)CC1)n1cc(-c2ncnc3[nH]ccc23)cn1 (stereo not shown) [Example 61, trifluoroacetate salt] ; retrieve measured IC50.
Result: < 10 nM

Task: What do you get for N#CCC(CN1CCN(C(=O)c2ccc(C(F)(F)F)cc2F)CC1)n1ccc(-c2ncnc3[nH]ccc23)c1 (stereo not shown) ?
Result: < 10 nM

Task: Check N#CCC(CN1CCN(C(=O)c2ncc(Cl)cc2F)CC1)n1ccc(-c2ncnc3[nH]ccc23)c1 (stereo not shown) too.
Result: 10 to 50 nM

Task: Now this one: N#CCC(CN1CCN(C(=O)Nc2c(F)cccc2F)CC1)n1cc(-c2ncnc3[nH]ccc23)cn1 (stereo not shown)
Result: < 10 nM

Task: Then N#CCC(CN1CCN(C(=O)c2ccc(F)c(F)c2)CC1)n1cc(-c2ncnc3[nH]ccc23)cn1 (stereo not shown) ?
Result: 10 to 50 nM

Task: Also check Cc1cccc(Cl)c1NC(=O)N1CCN(CC(CC#N)n2cc(-c3ncnc4[nH]ccc34)cn2)CC1 (stereo not shown)
Result: 10 to 50 nM

Task: Now try N#CCC(CN1CCN(C(=O)c2ccc(F)cn2)CC1)n1cc(-c2ncnc3[nH]ccc23)cn1 (stereo not shown) [Example 21, trifluoroacetate Salt] .
Result: 10 to 50 nM
